- TARGET_OR_TEST_SYSTEM: mTORC1 (Homo sapiens (Human), UniProt P42345+P62942)
- METHOD_NOTES: mTORC1 inhibition, AlphaLISA of Phospho-p70 S6 kinase (p70S6K pT389) in PC-3 cells
- EXPERIMENTAL_CONDITIONS: inhibition of p70S6K pT389 levels

COMPOUND | TARGET_OR_TEST_SYSTEM | IC50
COC1CC(CC(C)C2CC(=O)C(C)C=C(C)C(O)C(OC)C(=O)C(C)CC(C)C=CC=CC=C(C)C(OC3CC3)CC3CCC(C)C(O)(O3)C(=O)C(=O)N3CCCCC3C(=O)O2)CCC1OCCO (stereo not shown) [Compound 46] | mTORC1 (Homo sapiens (Human), UniProt P42345+P62942) | 0.1 to 0.8 nM
CO[C@@H]1C[C@H](C[C@@H](C)[C@@H]2CC(=O)[C@H](C)/C=C(\C)[C@@H](O)[C@@H](OC)C(=O)[C@H](C)C[C@H](C)/C=C/C=C/C=C(\C)[C@H](NS(=O)(=O)CC3CCCC3)C[C@@H]3CC[C@@H](C)[C@@](O)(O3)C(=O)C(=O)N3CCCC[C@H]3C(=O)O2)CC[C@H]1O [Compound 22] | mTORC1 (Homo sapiens (Human), UniProt P42345+P62942) | 0.1 to 0.8 nM
COCCO[C@H]1C[C@@H]2CC[C@@H](C)[C@@](O)(O2)C(=O)C(=O)N2CCCC[C@H]2C(=O)O[C@H]([C@H](C)C[C@@H]2CC[C@@H](OCCCS(C)(=O)=O)[C@H](OC)C2)CC(=O)[C@H](C)/C=C(\C)[C@@H](O)[C@@H](OC)C(=O)[C@H](C)C[C@H](C)/C=C/C=C/C=C/1C [Compound 61] | mTORC1 (Homo sapiens (Human), UniProt P42345+P62942) | < 0.1 nM
COCCOCCS(=O)(=O)N[C@@H]1C[C@@H]2CC[C@@H](C)[C@@](O)(O2)C(=O)C(=O)N2CCCC[C@H]2C(=O)O[C@H]([C@H](C)C[C@@H]2CC[C@@H](O)[C@H](OC)C2)CC(=O)[C@H](C)/C=C(\C)[C@@H](O)[C@@H](OC)C(=O)[C@H](C)C[C@H](C)/C=C/C=C/C=C/1C [Compound 8] | mTORC1 (Homo sapiens (Human), UniProt P42345+P62942) | 0.1 to 0.8 nM
CO[C@@H]1C[C@H](C[C@@H](C)[C@@H]2CC(=O)[C@H](C)/C=C(\C)[C@@H](O)[C@@H](OC)C(=O)[C@H](C)C[C@H](C)/C=C/C=C/C=C(\C)[C@@H](NS(=O)(=O)CC3CCOCC3)C[C@@H]3CC[C@@H](C)[C@@](O)(O3)C(=O)C(=O)N3CCCC[C@H]3C(=O)O2)CC[C@H]1O [Compound 6] | mTORC1 (Homo sapiens (Human), UniProt P42345+P62942) | 0.1 to 0.8 nM
CO[C@@H]1C[C@H](C[C@@H](C)[C@@H]2CC(=O)[C@H](C)/C=C(\C)[C@@H](O)[C@@H](OC)C(=O)[C@H](C)C[C@H](C)/C=C/C=C/C=C(\C)[C@@H](OCC3CCS(=O)(=O)C3)C[C@@H]3CC[C@@H](C)[C@@](O)(O3)C(=O)C(=O)N3CCCC[C@H]3C(=O)O2)CC[C@H]1O (stereo partly shown) [Compound 30] | mTORC1 (Homo sapiens (Human), UniProt P42345+P62942) | > 0.8 nM
COCCOCCOC1CC2CCC(C)C(O)(O2)C(=O)C(=O)N2CCCCC2C(=O)OC(C(C)CC2CCC(OCCCS(C)(=O)=O)C(OC)C2)CC(=O)C(C)C=C(C)C(O)C(OC)C(=O)C(C)CC(C)C=CC=CC=C1C (mixture of isomers) [Compound 65] | mTORC1 (Homo sapiens (Human), UniProt P42345+P62942) | 0.1 to 0.8 nM
